Measured pEC50, listed per entry.
# system.tested: hNET (Homo sapiens, UniProt P23975)
# Sequence (P23975 whole entry): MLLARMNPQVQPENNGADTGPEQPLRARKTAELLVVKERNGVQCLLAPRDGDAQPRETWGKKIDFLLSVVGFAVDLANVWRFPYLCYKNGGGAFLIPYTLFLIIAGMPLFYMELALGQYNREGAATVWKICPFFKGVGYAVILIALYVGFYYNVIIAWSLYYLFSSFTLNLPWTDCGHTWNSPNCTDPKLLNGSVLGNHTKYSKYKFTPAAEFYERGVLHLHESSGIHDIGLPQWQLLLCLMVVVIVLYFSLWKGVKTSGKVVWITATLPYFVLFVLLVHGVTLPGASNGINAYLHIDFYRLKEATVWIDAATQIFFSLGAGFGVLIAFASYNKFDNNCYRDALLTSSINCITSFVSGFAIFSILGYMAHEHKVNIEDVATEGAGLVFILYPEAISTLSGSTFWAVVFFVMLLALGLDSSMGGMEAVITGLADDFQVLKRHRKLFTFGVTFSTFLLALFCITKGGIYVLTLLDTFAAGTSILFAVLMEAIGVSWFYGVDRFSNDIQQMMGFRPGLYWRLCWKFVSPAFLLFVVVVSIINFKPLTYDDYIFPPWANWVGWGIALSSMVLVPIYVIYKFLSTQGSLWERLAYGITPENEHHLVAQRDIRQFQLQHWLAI
# test.description: Norepinephrine (NE) uptake assay in MDCK-Net6 cells
# test.settings: [3H]NE uptake, MDCK-Net6 cells stably transfected with human hNET; test range 1 to 10,000 nM
pEC50: −log10 of the molar value. Counter-ions that a name gives are not always drawn.
measurement.kind: pEC50

[[record]]
compound = "CC(CCN1CCN(CC(c2cccc(Cl)c2)C2(O)CCCCC2)CC1)c1ccccc1 (stereo not shown) [Example 121, dihydrochloride]"
system_tested = "hNET (Homo sapiens, UniProt P23975)"
measurement_kind = "pEC50"
test_result = 7.66

[[record]]
compound = "OC1(C(CN2CCN(Cc3cccc(Oc4ccccc4)c3)CC2)c2cccc(Cl)c2)CCCCC1 (stereo not shown) [Example 123, dihydrochloride]"
system_tested = "hNET (Homo sapiens, UniProt P23975)"
measurement_kind = "pEC50"
test_result = 6.54

[[record]]
compound = "CC(CN1CCN(CC(c2cccc(Cl)c2)C2(O)CCCCC2)CC1)c1ccccc1 (stereo not shown) [Example 129, dihydrochloride]"
system_tested = "hNET (Homo sapiens, UniProt P23975)"
measurement_kind = "pEC50"
test_result = 6.37

[[record]]
compound = "OC1(C(CN2CCN(Cc3ccc4ccccc4c3)CC2)c2cccc(Cl)c2)CCCCC1 (stereo not shown) [Example 124, dihydrochloride]"
system_tested = "hNET (Homo sapiens, UniProt P23975)"
measurement_kind = "pEC50"
test_result = 6.72

[[record]]
compound = "OC1(C(CN2CCN(CCc3ccccc3)CC2)c2cccc(Cl)c2)CCCCC1 (stereo not shown) [Example 122, dihydrochloride]"
system_tested = "hNET (Homo sapiens, UniProt P23975)"
measurement_kind = "pEC50"
test_result = 7.12

[[record]]
compound = "OC1(C(CN2CCN(CC3CCCCC3)CC2)c2cccc(Cl)c2)CCCCC1 (stereo not shown) [Example 126, dihydrochloride]"
system_tested = "hNET (Homo sapiens, UniProt P23975)"
measurement_kind = "pEC50"
test_result = 6.89

[[record]]
compound = "OC1(C(CN2CCN(Cc3ccoc3)CC2)c2cccc(Cl)c2)CCCCC1 (stereo not shown) [Example 125, dihydrochloride]"
system_tested = "hNET (Homo sapiens, UniProt P23975)"
measurement_kind = "pEC50"
test_result = 6.92

